Listing of entries alongside the reported IC50.
Target: Recombinant human HDAC2 (Homo sapiens)
Construct: Full length human HDAC2-FLAG was expressed in baculovirus infected Sf9 cells; FLAG (C); made in house; host or cells: Sf9 (baculovirus)
Sequence (Q92769 whole entry): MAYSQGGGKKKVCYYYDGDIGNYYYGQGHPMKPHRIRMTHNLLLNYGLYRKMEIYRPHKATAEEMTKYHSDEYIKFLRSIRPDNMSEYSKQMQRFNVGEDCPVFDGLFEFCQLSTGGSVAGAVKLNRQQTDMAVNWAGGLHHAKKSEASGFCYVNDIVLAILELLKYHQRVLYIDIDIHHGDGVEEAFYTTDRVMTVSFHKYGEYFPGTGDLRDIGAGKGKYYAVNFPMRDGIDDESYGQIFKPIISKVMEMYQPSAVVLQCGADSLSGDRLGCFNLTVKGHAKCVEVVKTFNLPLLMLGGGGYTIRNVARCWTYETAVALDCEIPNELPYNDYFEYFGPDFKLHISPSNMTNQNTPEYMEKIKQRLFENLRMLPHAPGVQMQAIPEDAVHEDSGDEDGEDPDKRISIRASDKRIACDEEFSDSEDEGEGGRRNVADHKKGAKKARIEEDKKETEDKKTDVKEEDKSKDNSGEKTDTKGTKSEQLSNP
Test: Human HDAC enzyme inhibitor Fluor-de-Lys assay, HDAC2
Type: biochemical
Conditions: recombinant human HDAC2, Fluor-de-Lys assay
Experimental: Human HDAC Enzyme Inhibitor Fluor-De-Lys Assay Recombinant human HDAC8 (BML-SE145-0100) and HDAC10 (BML-SE559-0050) enzymes, HDAC substrates BML-KI104 and BML-KI178, and HDAC developer solutions BML-KI105 and BML-KI176 were purchased from Enzo Life Sciences. […] The histone deacetylase activities of HDAC1, HDAC2, HDAC3, HDAC6, and HDAC8 were measured in modified FLUOR DE LYS assays in 384-well format. […] The released AMC is then detected by its fluorescence. […]

- Molecule: "CCC(=O)CCCCC[C@H](NC(=O)[C@@H]1CC12CN(C)C2)c1ncc(-c2cc3ccc(C)nc3cc2OC)o1 (single isomer, unassigned)"
  IC50: "19.2 nM"
- Molecule: "CCC(=O)CCCCC[C@H](NC(=O)[C@H]1CC12CCN(C)CC2)c1ncc(-c2ccc(C(=O)NC3CCOC3)cc2)[nH]1 (stereo partly drawn)"
  IC50: "23.8 nM"
- Molecule: "CCC(=O)CCCCC[C@H](NC(=O)C1=NOC2(CCN(CC3CC3)CC2)C1)c1ncc(-c2cc3ccc(C)nc3cc2OC)o1"
  IC50: "6.2 nM"
- Molecule: "CCC(=O)CCCCC[C@H](NC(=O)[C@H]1CC12CCN(CC1CC1)CC2)c1ncc(-c2ccc3nc(C)ccc3c2)[nH]1"
  IC50: "0.1 nM"
- Molecule: "CCC(=O)CCCCC[C@@H](NC(=O)C1CCC2(CC1)CN(C)C2)c1ncc(-c2ccccc2)[nH]1"
  IC50: "167 nM"
- Molecule: "CCC(=O)CCCCC[C@H](NC(=O)[C@H]1CC12CCN(C)CC2)c1ncc(-c2ccc(C(F)(F)F)cc2)[nH]1"
  IC50: "82.1 nM"

###

molecular target: Recombinant human HDAC3/SMRT heterodimer (Homo sapiens, UniProt O15379); construct: FLAG (C); made in house; test: Human HDAC enzyme inhibitor Fluor-de-Lys assay, HDAC3/SMRT; format: biochemical
Sequence (O15379 whole entry): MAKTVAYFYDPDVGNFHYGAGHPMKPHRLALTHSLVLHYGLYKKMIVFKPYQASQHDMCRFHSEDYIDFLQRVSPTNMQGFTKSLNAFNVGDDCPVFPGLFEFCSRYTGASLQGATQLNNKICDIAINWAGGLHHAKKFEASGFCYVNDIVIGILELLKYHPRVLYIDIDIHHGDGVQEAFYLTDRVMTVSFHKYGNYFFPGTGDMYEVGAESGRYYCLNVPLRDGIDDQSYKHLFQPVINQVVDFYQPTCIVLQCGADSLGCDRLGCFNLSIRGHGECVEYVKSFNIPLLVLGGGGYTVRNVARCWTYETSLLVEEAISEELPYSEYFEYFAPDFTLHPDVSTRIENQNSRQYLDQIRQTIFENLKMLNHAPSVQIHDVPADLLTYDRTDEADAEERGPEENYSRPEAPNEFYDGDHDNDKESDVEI
Sequence (Q9Y618 1-899 partner limits assumed): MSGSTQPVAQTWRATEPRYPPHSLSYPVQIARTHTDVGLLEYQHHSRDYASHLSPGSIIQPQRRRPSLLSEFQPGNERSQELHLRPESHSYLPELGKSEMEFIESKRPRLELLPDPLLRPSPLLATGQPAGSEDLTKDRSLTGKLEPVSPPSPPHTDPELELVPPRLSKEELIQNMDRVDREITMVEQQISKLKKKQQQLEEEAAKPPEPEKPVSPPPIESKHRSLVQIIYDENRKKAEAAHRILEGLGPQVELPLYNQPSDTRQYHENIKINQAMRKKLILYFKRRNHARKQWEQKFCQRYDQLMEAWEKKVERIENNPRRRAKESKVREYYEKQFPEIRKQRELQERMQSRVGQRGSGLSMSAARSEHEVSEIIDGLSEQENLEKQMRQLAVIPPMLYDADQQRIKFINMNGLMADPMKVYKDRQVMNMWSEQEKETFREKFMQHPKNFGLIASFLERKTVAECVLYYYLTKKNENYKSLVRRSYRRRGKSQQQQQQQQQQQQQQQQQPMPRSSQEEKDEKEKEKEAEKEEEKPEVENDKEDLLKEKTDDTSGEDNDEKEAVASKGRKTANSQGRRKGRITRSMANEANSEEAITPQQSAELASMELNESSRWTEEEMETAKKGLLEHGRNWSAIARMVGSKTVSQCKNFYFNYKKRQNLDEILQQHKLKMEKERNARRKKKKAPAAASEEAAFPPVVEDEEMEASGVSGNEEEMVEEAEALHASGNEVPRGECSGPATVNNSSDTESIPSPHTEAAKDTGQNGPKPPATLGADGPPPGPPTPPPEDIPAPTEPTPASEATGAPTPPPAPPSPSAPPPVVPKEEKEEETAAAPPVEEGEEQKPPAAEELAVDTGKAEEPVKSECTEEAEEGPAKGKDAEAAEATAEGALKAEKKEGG
pIC50: −log10 of the molar value.

- Compound: "CCC(=O)CCCCC[C@H](NC(=O)[C@H]1CC12CCN(CC)CC2)c1ncc(-c2ccc(-c3ncco3)cc2)o1"
  pIC50: 8.40
- Compound: "CCC(=O)CCCCC[C@H](NC(=O)C1(CC(C)C)CC2(CN(C)C2)C1)c1ncc(-c2ccc3nc(C)ccc3c2)[nH]1"
  pIC50: 8.40
- Compound: "CCC(=O)CCCCC[C@H](NC(=O)[C@H]1CC12CCN(C)CC2)c1ncc(-c2ccc(-c3ccc(C4CC4)nc3)cc2)o1"
  pIC50: 7.49
- Compound: "CCC(=O)CCCCC[C@H](NC(=O)CN1CCC2(CC1)CC2)c1ncc(-c2ccc3nn(C)cc3c2)[nH]1"
  pIC50: 8.69
- Compound: "CCC(=O)CCCCC[C@H](NC(=O)[C@H]1CC12CCN(C)CC2)c1nnc(-c2cc3ccc(C)nc3cc2OC)o1"
  pIC50: 8.77
- Compound: "CCC(=O)CCCCC[C@H](NC(=O)C1=NOC2(CCN(CC)CC2)C1)c1ncc(-c2cc3ccc(C)nc3cc2OC)o1"
  pIC50: 9.15
- Compound: "CCC(=O)CCCCC[C@H](NC(=O)[C@H]1CC12CCN(C)CC2)c1ncc(-c2ccc3cc(C#N)ccc3c2)[nH]1"
  pIC50: 9.42
- Compound: "CCC(=O)CCCCC[C@H](NC(=O)[C@H]1CC12CCN(C)CC2)c1ncc(-c2ccc3nc(C4CC4)sc3c2)[nH]1"
  pIC50: 9.19
- Compound: "CCC(=O)CCCCC[C@H](NC(=O)C1(C)CC12CCN(C(C)C)CC2)c1ncc(-c2ccc3nc(C)ccc3c2)[nH]1 (single isomer, unassigned)"
  pIC50: 9.07
- Compound: "CCC(=O)CCCCC[C@H](NC(=O)[C@H]1CC12CCN(C)CC2)c1ncc(-c2ccc3nc(C)ccc3c2)o1"
  pIC50: 8.53
- Compound: "CCC(=O)CCCCC[C@H](NC(=O)[C@H]1CC12CCN(C)CC2)c1ncc(-c2ccc3ncoc3c2)[nH]1"
  pIC50: 8.64
- Compound: "CCC(=O)CCCCC[C@H](NC(=O)[C@H]1CC12CCN(C)CC2)c1ncc(-c2cc(OC)ncc2F)o1"
  pIC50: 7.48
- Compound: "CCC(=O)CCCCC[C@H](NC(=O)[C@H]1CC12CCN(CC)CC2)c1ncc(-c2ccc3c(=O)n(C(C)C)ccc3c2)[nH]1"
  pIC50: 9.72

###

biological target: Recombinant human HDAC1 (Homo sapiens, UniProt Q13547); construct: FLAG (C); made in house; experiment: Human HDAC enzyme inhibitor Fluor-de-Lys assay, HDAC1; type: biochemical
Sequence (Q13547 whole entry): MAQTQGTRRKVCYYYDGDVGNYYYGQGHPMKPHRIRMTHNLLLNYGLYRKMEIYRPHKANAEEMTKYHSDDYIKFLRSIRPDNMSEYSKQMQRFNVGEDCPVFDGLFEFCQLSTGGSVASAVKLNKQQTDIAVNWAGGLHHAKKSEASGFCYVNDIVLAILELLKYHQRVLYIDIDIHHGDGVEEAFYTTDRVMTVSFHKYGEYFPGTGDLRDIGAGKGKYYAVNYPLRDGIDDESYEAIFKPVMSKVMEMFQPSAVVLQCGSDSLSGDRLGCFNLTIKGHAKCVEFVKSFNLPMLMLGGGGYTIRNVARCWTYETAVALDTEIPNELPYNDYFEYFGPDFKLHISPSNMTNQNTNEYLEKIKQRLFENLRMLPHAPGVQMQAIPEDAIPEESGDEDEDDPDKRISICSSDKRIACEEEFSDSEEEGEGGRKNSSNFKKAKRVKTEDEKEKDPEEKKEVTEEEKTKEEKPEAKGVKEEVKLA
pIC50: −log10 of the molar value.
Each entry below lists one item and its recorded pIC50 value.
Measure: pIC50

- Molecule: "CCC(=O)CCCCC[C@H](NC(=O)[C@H]1CC12CCN(C)CC2)c1ncc(-c2cnc3cccnc3c2)[nH]1 [Compound 67]"
  Relation Qualifier: "="
  Endpoint Result: 7.71
- Molecule: "CCC(=O)CCCCC[C@H](NC(=O)C1CC12CCN(C)C(C)(C)C2)c1ncc(-c2ccc3nc(C)ccc3c2)[nH]1 (single isomer, unassigned) [Compound 133]"
  Relation Qualifier: ">"
  Endpoint Result: 8.82
- Molecule: "CCC(=O)CCCCC[C@H](NC(=O)[C@H]1CC12CCN(C)CC2)c1ncc(-c2cc(OC)ncc2F)o1 [Compound 220]"
  Relation Qualifier: "="
  Endpoint Result: 7.52
- Molecule: "CCC(=O)CCCCC[C@H](NC(=O)[C@H]1CC12CCN(CC1CC1)CC2)c1ncc(-c2ccc3nc(C4CC4)ccc3c2)[nH]1 [Compound 104]"
  Relation Qualifier: ">"
  Endpoint Result: 8.82
- Molecule: "CCN1CCC2(CC1)C[C@@H]2C(=O)N[C@@H](CCCCCC(=O)CC1CC1)c1ncc(-c2cc3ccc(C)nc3cc2OC)[nH]1 [Compound 165]"
  Relation Qualifier: "="
  Endpoint Result: 8.93
- Molecule: "CCC(=O)CCCCC[C@H](NC(=O)C1=NOC2(CCN(C)CC2)C1)c1ncc(-c2cc3ccccc3nc2OC)[nH]1 [Compound 105]"
  Relation Qualifier: "="
  Endpoint Result: 9.04

###

biological target: HDAC6 (Homo sapiens, UniProt Q9UBN7); test: Human HDAC enzyme inhibitor Fluor-de-Lys assay, HDAC6; type: biochemical
Sequence (Q9UBN7 whole entry): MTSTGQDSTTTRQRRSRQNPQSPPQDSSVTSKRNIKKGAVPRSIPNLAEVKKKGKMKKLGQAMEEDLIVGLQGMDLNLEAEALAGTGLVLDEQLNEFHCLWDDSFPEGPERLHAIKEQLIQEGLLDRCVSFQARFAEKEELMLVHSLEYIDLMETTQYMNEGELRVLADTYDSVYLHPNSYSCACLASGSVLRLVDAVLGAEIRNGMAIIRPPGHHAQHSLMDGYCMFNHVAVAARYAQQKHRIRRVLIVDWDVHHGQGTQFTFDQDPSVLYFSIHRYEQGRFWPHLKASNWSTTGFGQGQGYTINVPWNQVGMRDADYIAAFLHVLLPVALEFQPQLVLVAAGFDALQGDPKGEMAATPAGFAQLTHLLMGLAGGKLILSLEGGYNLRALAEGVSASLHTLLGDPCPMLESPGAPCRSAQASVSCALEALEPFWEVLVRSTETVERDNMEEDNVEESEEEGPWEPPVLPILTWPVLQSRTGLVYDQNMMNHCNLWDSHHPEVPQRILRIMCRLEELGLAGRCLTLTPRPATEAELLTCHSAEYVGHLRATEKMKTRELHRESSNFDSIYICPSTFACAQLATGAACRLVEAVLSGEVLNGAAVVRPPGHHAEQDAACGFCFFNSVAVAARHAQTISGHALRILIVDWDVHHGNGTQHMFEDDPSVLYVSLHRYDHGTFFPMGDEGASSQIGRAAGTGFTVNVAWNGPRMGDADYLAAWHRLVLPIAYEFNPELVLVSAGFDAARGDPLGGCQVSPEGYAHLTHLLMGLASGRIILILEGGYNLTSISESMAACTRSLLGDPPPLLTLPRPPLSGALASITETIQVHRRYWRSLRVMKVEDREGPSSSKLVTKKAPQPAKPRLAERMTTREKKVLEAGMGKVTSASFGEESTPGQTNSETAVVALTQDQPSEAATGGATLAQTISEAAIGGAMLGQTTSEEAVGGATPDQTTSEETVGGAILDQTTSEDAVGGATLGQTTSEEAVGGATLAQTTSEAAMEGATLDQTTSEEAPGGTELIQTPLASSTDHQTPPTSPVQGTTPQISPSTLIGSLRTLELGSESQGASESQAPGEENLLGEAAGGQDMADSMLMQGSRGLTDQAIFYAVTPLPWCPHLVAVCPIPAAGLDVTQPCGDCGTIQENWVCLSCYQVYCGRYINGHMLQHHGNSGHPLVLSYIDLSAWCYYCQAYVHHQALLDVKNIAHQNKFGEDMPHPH
So basically, if IC50 comes in under 4 µM it's 1, and if it's 4 µM or more it's 0.

- Compound: "CC(O)C(=O)CCCCC[C@H](NC(=O)[C@H]1CC12CCN(C)CC2)c1nc(-c2ccc(F)cc2)c[nH]1 (stereo partly shown)"
  Measurement Target: "HDAC6 (Homo sapiens, UniProt Q9UBN7)"
  Category Label: 1
- Compound: "CCC(=O)CCCCC[C@H](NC(=O)[C@H]1CC12CCN(C)CC2)c1[nH]c(-c2ccc(F)cc2)nc1C#N"
  Measurement Target: "HDAC6 (Homo sapiens, UniProt Q9UBN7)"
  Category Label: 0
- Compound: "CCC(=O)CCCCC[C@H](NC(=O)C1=NOC2(CCN(CC)CC2)C1)c1ncc(-c2cc3ccc(C)nc3cc2OC)[nH]1"
  Measurement Target: "HDAC6 (Homo sapiens, UniProt Q9UBN7)"
  Category Label: 1
- Compound: "CCC(=O)CCCCC[C@H](NC(=O)C1=NOC2(CCN(C)CC2)C1)c1ncc(-c2ccc3nn(C)cc3c2)[nH]1"
  Measurement Target: "HDAC6 (Homo sapiens, UniProt Q9UBN7)"
  Category Label: 0
- Compound: "CCC(=O)CCCCC[C@H](NC(=O)[C@H]1CC12CCN(C(C)C)CC2)c1ncc(-c2ccc3c(ccc(=O)n3C)c2)o1"
  Measurement Target: "HDAC6 (Homo sapiens, UniProt Q9UBN7)"
  Category Label: 0
- Compound: "CCC(=O)CCCCC[C@H](NC(=O)[C@H]1CC12CCN(C(C)C)CC2)c1ncc(-c2cc3ccccc3nc2OC)o1"
  Measurement Target: "HDAC6 (Homo sapiens, UniProt Q9UBN7)"
  Category Label: 1

###

# maps each entry to its EC50
System: KARN cells (Jurkat 2C4)
Test: cells
Format: cell-based
Conditions: Homo sapiens, Jurkat, read-out: Karn EC50 (nM) 5% NHS, 5% normal human serum; luciferase induction, 100% = 2 μM SAHA
Protocol: KARN cells (Jurkat 2C4) were licensed from the laboratory of Dr. John Karn, Case Western Reserve University, School of Medicine. […] An atmosphere of 5% CO2 and 90% humidity was used for all culture work. […] Day 2: Cell Preparation: The next day, the cells were transferred from each T175 flask to an individual 50 ml conical tube and gently pelleted at 1000 rpm for 5 minutes. […] The cells were counted using the ViCell (Beckman Coulter) and diluted as necessary. […]

- Compound: "CCC(=O)CCCCC[C@H](NC(=O)CC1CC2(C1)CN(C(C)C)C2)c1ncc(-c2cc3ccccc3nc2OC)[nH]1"
  Unit Info: "nM"
  Relation Qualifier: "="
  EC50: 438
- Compound: "CCC(=O)CCCCC[C@H](NC(=O)C1CC12CCOCC2)c1ncc(-c2cc3ccc(C)nc3cc2OC)o1 (single isomer, unassigned)"
  Unit Info: "nM"
  Relation Qualifier: "="
  EC50: 1860
- Compound: "CCCC(=O)CCCCC[C@H](NC(=O)[C@H]1CC12CCN(C)CC2)c1ncc(-c2ccc(F)cc2)[nH]1"
  Unit Info: "nM"
  Relation Qualifier: "="
  EC50: 581
- Compound: "CCC(=O)CCCCC[C@H](NC(=O)[C@H]1CC12CCN(CC)CC2)c1ncc(-c2cc3ccn(CC)c(=O)c3cc2OC)[nH]1"
  Unit Info: "nM"
  Relation Qualifier: "="
  EC50: 22
- Compound: "CCC(=O)CCCCC[C@H](NC(=O)[C@H]1CC12CCN(C)CC2)c1ncc(-c2ccc(-c3cccnc3)nc2)[nH]1"
  Unit Info: "nM"
  Relation Qualifier: "="
  EC50: 851
- Compound: "CCC(=O)CCCCC[C@H](NC(=O)[C@H]1CC12CCN(C)CC2)c1ncc(-c2cnc(-n3cc(C)cn3)nc2)[nH]1"
  Unit Info: "nM"
  Relation Qualifier: "="
  EC50: 10600
- Compound: "CCC(=O)CCCCC[C@H](NC(=O)[C@H]1CC12CCN(C)CC2)c1ncc(-c2cc3ocnc3cc2F)o1"
  Unit Info: "nM"
  Relation Qualifier: "="
  EC50: 1550
- Compound: "CCC(=O)CCCCC[C@H](NC(=O)CC1CC2(CNC2)C1)c1ncc(-c2ccccc2)[nH]1"
  Unit Info: "nM"
  Relation Qualifier: "="
  EC50: 15800
- Compound: "CCC(=O)CCCCC[C@H](NC(=O)[C@@H]1C[C@]12CCN(C)C2)c1ncc(-c2cc3ccccc3nc2OC)[nH]1"
  Unit Info: "nM"
  Relation Qualifier: "="
  EC50: 1140
- Compound: "CCC(=O)CCCCC[C@H](NC(=O)[C@H]1CC12CCN(CCC(F)(F)F)CC2)c1ncc(-c2cc3ccccc3nc2OC)[nH]1"
  Unit Info: "nM"
  Relation Qualifier: "="
  EC50: 343
- Compound: "CCC(=O)CCCCC[C@H](NC(=O)C1=NOC2(CCN(C(C)C)CC2)C1)c1nnc(-c2cc3ccccc3nc2OC)o1"
  Unit Info: "nM"
  Relation Qualifier: "="
  EC50: 1680
- Compound: "CCC(=O)CCCCC[C@H](NC(=O)C1=NOC2(CCN(C(=O)OC)CC2)C1)c1ncc(-c2ccccc2)[nH]1"
  Unit Info: "nM"
  Relation Qualifier: "="
  EC50: 6410
- Compound: "CCC(=O)CCCCCC(N)(COC)c1ncc(-c2cc3ccc(C)nc3cc2OC)[nH]1 (centres unmarked)"
  Unit Info: "nM"
  Relation Qualifier: ">"
  EC50: 40000
- Compound: "CCC(=O)CCCCC[C@H](NC(=O)C1=NOC2(CCN(CC3CC3)CC2)C1)c1ncc(-c2cc3ccc(=O)n(C)c3cc2OC)o1"
  Unit Info: "nM"
  Relation Qualifier: "="
  EC50: 476
